// provenance: PubChem BioAssay (NCI)

Listed below: TGI values for each entry.
Test system: HCT-15 colon
ASSAY_TEXT: NCI tumour cell line growth inhibition, 48 h

Worked cases, answers included:
[
  {
    "COMPOUND": "CC(C)(C)n1c(=O)n(C(=O)C(Cl)(Cl)Cl)n(C(=O)C(Cl)(Cl)Cl)c1=O",
    "TGI": "> 100 µM"
  },
  {
    "COMPOUND": "CCNC(=O)/C=C/CCC#Cc1ccc(-c2ccc(-c3cccs3)s2)s1",
    "TGI": "> 100 µM"
  },
  {
    "COMPOUND": "CC1(C)[C@@H](Cn2cnc3c(=O)[nH]c(N)nc32)CC[C@@]1(C)CO",
    "TGI": "> 100 µM"
  },
  {
    "COMPOUND": "O=C1CCC2(CC1CCSc1ccccc1)OCCO2 (stereo not given)",
    "TGI": "> 100 µM"
  }
]

Turning to the following compound.
For reference, reported TGI for `COc1ccc(/C=C(\C(=C/c2ccc(OC)cc2)[N+](=O)[O-])[N+](=O)[O-])cc1` stands at 6.18 µM

====

Tested on: SK-MEL-28 melanoma
ASSAY_TEXT: NCI tumour cell line growth inhibition, 48 h
REPORTED_METRIC: TGI (µM)
The response must be a number in µM with no trailing unit.

[
  {
    "COMPOUND": "Cc1ccccc1S(=O)(=O)N1[C@H](c2ccc(Cl)cc2)C(C(=O)N[C@@H](Cc2ccccc2)C(N)=O)=C[C@@H]1C(C)(C)C",
    "VALUE_OBSERVED": 12
  },
  {
    "COMPOUND": "C=C(CC(=O)Nc1ccc(C(=O)OC)o1)C(=O)OC",
    "VALUE_OBSERVED": 44.6
  },
  {
    "COMPOUND": "COC(=O)c1ccc(CCc2cc(O)ccc2O)cc1",
    "VALUE_OBSERVED": 42.2
  }
]

Turning to the following compound.
For reference, reported TGI for CC1CCC2(NC1)OC1CC3[C@@H]4CC=C5C=CCC[C@]5(C)C4CC[C@]3(C)C1C2C (stereo not given in full) stands at 30

====

Test system: MOLT-4 leukemia
ASSAY_TEXT: NCI tumour cell line growth inhibition, 48 h
REPORTED_METRIC: log10(TGI) (log10 of the value in µM)
// stored as log10 of TGI expressed in µM

[
  {
    "COMPOUND": "C1#Cc2ccccc2OCCOc2ccccc2C#Cc2ccccc2OCCOc2ccccc21",
    "log10(TGI)": 1.50
  },
  {
    "COMPOUND": "COc1cc2c(c(OC)c1OC)-c1ccc(NNC(=S)N(Cc3cccc(C[N+](Cc4cccc(CNC56CC7CC(CC(C7)C5)C6)c4)(Cc4cccc(CNC56CC7CC(CC(C7)C5)C6)c4)Cc4cccc(CN(C(=S)NNc5ccc6c(cc5=O)[C@@H](NC(C)=O)CCc5cc(OC)c(OC)c(OC)c5-6)C56CC7CC(CC(C7)C5)C6)c4)c3)C34CC5CC(CC(C5)C3)C4)c(=O)cc1[C@@H](NC(C)=O)CC2 (some centres undefined)",
    "log10(TGI)": 0.29
  },
  {
    "COMPOUND": "CCN(CC)CCOc1ccc(Nc2ncc3cc(-c4c(Cl)cccc4Cl)c(=O)n(CCOC)c3n2)cc1",
    "log10(TGI)": 0.73
  },
  {
    "COMPOUND": "Cc1cc2c(cc1C)[n+](=O)c(C(=O)/C=C/c1ccc(Cl)cc1)c(C)n2[O-]",
    "log10(TGI)": 1.87
  }
]

For reference, reported log10(TGI) for `COc1ccc(Nc2ncccc2/C=C/C(=O)c2cc(OC)c(OC)c(OC)c2)cc1` stands at 0.74

For reference, reported log10(TGI) for `C=C1C(=O)O[C@H]2[C@H]1CC/C(CNC(=O)/C=C/c1cccc(OC)c1)=C\CC[C@@]1(C)O[C@@H]21` stands at 0.87

====

System: A549 NSCLC
ASSAY_TEXT: NCI tumour cell line growth inhibition, 48 h
Listed below: TGI values for each entry.

For reference, reported TGI for NC(c1ccccc1)(C(F)(F)F)P1(=O)OC(=O)c2ccccc2O1 (stereo not drawn) stands at > 100 µM

For reference, reported TGI for `CC(=Nc1c2ccccc2nc2ccccc12)N(C)C` stands at > 100 µM

====

System: SF-268 CNS
ASSAY_TEXT: NCI tumour cell line growth inhibition, 48 h
Listed below: TGI values for each entry.

Worked cases, answers included:
[
  {
    "COMPOUND": "Oc1ccc2c(c1)CC[N+]1=C2CCC2CCCC21 (stereo unspecified)",
    "TARGET_OR_SYSTEM": "SF-268 CNS",
    "REPORTED_METRIC": "TGI",
    "VALUE_OBSERVED": "> 100 µM"
  },
  {
    "COMPOUND": "Cn1ccnc1C(c1nccn1C)C(C)(C)[N+](=O)[O-]",
    "TARGET_OR_SYSTEM": "SF-268 CNS",
    "REPORTED_METRIC": "TGI",
    "VALUE_OBSERVED": "> 100 µM"
  },
  {
    "COMPOUND": "Cc1cccc2nc3cccc(C(=O)NCCC[N+](C)(CCCNC(=O)c4cccc5nc6cccc(C)c6nc45)Cc4c([N+](=O)[O-])ncn4C)c3nc12",
    "TARGET_OR_SYSTEM": "SF-268 CNS",
    "REPORTED_METRIC": "TGI",
    "VALUE_OBSERVED": "> 1100 µM"
  },
  {
    "COMPOUND": "C=C(CC(=O)Nc1ccc(C(=O)OC)o1)C(=O)OC",
    "TARGET_OR_SYSTEM": "SF-268 CNS",
    "REPORTED_METRIC": "TGI",
    "VALUE_OBSERVED": "> 100 µM"
  },
  {
    "COMPOUND": "Cn1c(-c2ccc[se]2)ccc1-c1ccc(CO)[se]1",
    "TARGET_OR_SYSTEM": "SF-268 CNS",
    "REPORTED_METRIC": "TGI",
    "VALUE_OBSERVED": "> 100 µM"
  }
]

For reference, reported TGI for `Nc1ccccc1NC(=O)CCCCCCC(=O)Nc1ccc2c(c1)/C(=C/c1ccc[nH]1)C(=O)N2` stands at > 100 µM

For reference, reported TGI for `CCN(CC)C(=S)N/N=C/c1ccccn1` stands at > 66.4 µM

For reference, reported TGI for `COc1c(OC)c(O)c2c(=O)c(OC)c(-c3ccc4c(c3)OCO4)oc2c1O` stands at > 100 µM

For reference, reported TGI for `S=c1nc2[nH]c3ccc(Br)cc3c2n[nH]1` stands at > 100 µM

====

System: HCC-2998 colon
ASSAY_TEXT: NCI tumour cell line growth inhibition, 48 h
Where a SMILES comes first, the peptide text is derived from it. The star is where a group is joined. Boc = CC(C)(C)OC(=O)*
If the reported TGI equals or exceeds 20 µM, assign Fulfilled. If not, assign Not fulfilled.

Recorded results for 5 compounds are shown here.
[
  {
    "COMPOUND": "O=C(/C=C/c1ccc(-c2ccccc2)cc1)NCc1ccc(C(=O)NCCc2c[nH]c3ccccc23)cc1",
    "TARGET_OR_SYSTEM": "HCC-2998 colon",
    "DISCRETE_LABEL": "Fulfilled"
  },
  {
    "COMPOUND": "N#CC(C#N)=Cc1c(O)ccc2ccccc12",
    "TARGET_OR_SYSTEM": "HCC-2998 colon",
    "DISCRETE_LABEL": "Fulfilled"
  },
  {
    "COMPOUND": "O=c1[nH]c(=O)n(COCc2ccccc2)c2ccc([N+](=O)[O-])cc12",
    "TARGET_OR_SYSTEM": "HCC-2998 colon",
    "DISCRETE_LABEL": "Fulfilled"
  },
  {
    "COMPOUND": "O=S(=O)([O-])[O-].[Cl-].[NH2-].[NH2-].[NH2-].[NH2-].[Ru+3].c1ccc(-c2cccnc2)cc1",
    "TARGET_OR_SYSTEM": "HCC-2998 colon",
    "DISCRETE_LABEL": "Fulfilled"
  },
  {
    "COMPOUND": "CC1CCC2(NC1)OC1CC3[C@@H]4CC=C5C=CCC[C@]5(C)C4CC[C@]3(C)C1C2C (some centres not stated)",
    "TARGET_OR_SYSTEM": "HCC-2998 colon",
    "DISCRETE_LABEL": "Fulfilled"
  }
]

Q. Could you verify whether the entry CC1CC[C@@]2(OC1)O[C@H]1C[C@H]3[C@@H]4CC[C@H]5C[C@@H](OC6OC(CO)C(OC7OC(CO)C(OC8OC(CO)C(O)C(OC9OC(C)C(OC%10OC(C)C(O)C(O)C%10O)C(O)C9O)C8OC8OCC(O)C(O)C8O)C(O)C7O)C(O)C6O)CC[C@]5(C)[C@H]4CC(=O)[C@]3(C)[C@H]1[C@@H]2C (some centres not stated) shows TGI of no less than 20 µM?
A. Fulfilled

Q. Could you verify whether the entry CC(=O)O[C@H]1CC[C@@]2(C)C(CC[C@]3(C)C2CC[C@]2(C)Oc4c(C)cc(O)cc4C[C@@H]23)C1(C)C (some centres not stated) shows TGI of no less than 20 µM?
A. Fulfilled

Q. Could you verify whether the entry `O=C(c1ccccc1)c1c(C(F)(F)F)n([O-])c2cc(Cl)c(Cl)cc2[n+]1=O` shows TGI of no less than 20 µM?
A. Not fulfilled

Q. Could you verify whether the entry `CCN(CC)C(=S)N/N=C/c1ccccn1` shows TGI of no less than 20 µM?
A. Fulfilled

Q. Could you verify whether the entry `CCNC(=O)/C=C/CCC#Cc1ccc(-c2ccc(-c3cccs3)s2)s1` shows TGI of no less than 20 µM?
A. Fulfilled

Q. Could you verify whether the entry O=C1c2ccccc2C(=O)c2c1ccc1c2N=C(c2ccc(F)cc2)CC(c2ccc(Cl)c(Cl)c2)N1 (configuration not stated) shows TGI of no less than 20 µM?
A. Fulfilled

Q. Could you verify whether the entry `NCCNCCCCCCNC(=O)c1cccc2cc3ccccc3nc12` shows TGI of no less than 20 µM?
A. Not fulfilled

Q. Could you verify whether the entry `CCN(CC)CC(=O)/C=C/c1ccc(C)cc1` shows TGI of no less than 20 µM?
A. Fulfilled

Q. Could you verify whether the entry `CSc1ccc(-c2cc(-c3ccc(NC(=O)CCCN4CCCC4)cc3)nc(-c3ccc(NC(=O)CCCN4CCCC4)cc3)c2)cc1` shows TGI of no less than 20 µM?
A. Not fulfilled

Q. Could you verify whether the entry `CN(C)c1ccc(C(=O)c2ccc(N(C)C)c(N)c2)cc1N` shows TGI of no less than 20 µM?
A. Fulfilled

Q. Could you verify whether the entry COC(=O)C(Cc1c[nH]c2ccccc12)NC(=O)C(Cc1c[nH]c2ccccc12)NC(=O)C(Cc1c[nH]c2ccccc12)NC(=O)C(Cc1c[nH]c2ccccc12)NC(=O)OC(C)(C)C (configuration not stated) (Boc-WWWW-OMe; configuration not given here) shows TGI of no less than 20 µM?
A. Fulfilled
